system: PBMCs; test: CellTiter-Glo (CTG) cell proliferation assay, 72 hours, anti-CD3 stimulated; assay type: cell-based, human; details: Homo sapiens, PBMC, pre-activated PBMCs; CTG and viable cell count; read-out: antiproliferative IC50

Compound	Tgt	IC50
O=C1CCC(N2Cc3cc(CNC(=O)C(F)(F)c4ccc(Cl)cc4)ccc3C2=O)C(=O)N1 (stereo not shown) [Compound 1]	PBMCs	> 10 µM

====

Test system: KG-1
Experiment: IncuCyte Kinetic Caspase-3/7 Apoptosis Assay
Assay type: cell-based
Conditions: Homo sapiens, 72 hr, read-out: Compound 1-induced Apoptosis EC50
Description: Methods. […] Cell Culture Conditions: Cell lines were maintained in growth media containing 20% fetal bovine serum (FBS) (Hyclone Cat no. SH30910.03, Lot no. AZF188864; Corning REFno. 35-010-CV, Lot no. 35010124) supplemented with or without 10 ng/mL human recombinant granulocyte-macrophage colony stimulating factor (Sigma-Aldrich Cat no. SRP3050) (Table 8). […] The use of EMEM was necessary to eliminate background fluorescence caused by riboflavin in most media. […]

Compound	EC50 / nM
O=C1CCC(N2Cc3cc(CNC(=O)C(F)(F)c4ccc(Cl)cc4)ccc3C2=O)C(=O)N1 (stereo not shown) [Compound 1]	26

====

system: OCI-AML2; assay: IncuCyte live cell imaging of cell viability, Red-labeled cell line; type: cell-based; conditions: Homo sapiens, 48 hr, read-out: Inhibition of Cell Viability EC50

Compound	Tgt	EC50, nM
O=C1CCC(N2Cc3cc(CNC(=O)C(F)(F)c4ccc(Cl)cc4)ccc3C2=O)C(=O)N1 (stereo not shown)	OCI-AML2	83

====

system: AML cell lines; assay: IncuCyte Kinetic Caspase-3/7 Apoptosis Assay, panel of twenty AML cell lines; assay type: cell-based; conditions: Homo sapiens, 48 h, eight highly sensitive cell lines; 48 hours; read-out: apoptosis average EC50 48hr

Compound	Units Label	EC50
O=C1CCC(N2Cc3cc(CNC(=O)C(F)(F)c4ccc(Cl)cc4)ccc3C2=O)C(=O)N1 (stereo not shown)	nM	27

====

test system: TF-1; assay: IncuCyte live cell imaging of cell viability, Red-labeled cell line; format: cell-based; conditions: Homo sapiens; Red-labeled TF-1; 72 hr; read-out: Inhibition of Cell Viability EC50
pEC50: −log10 of the molar value.

Compound	pEC50
O=C1CCC(N2Cc3cc(CNC(=O)C(F)(F)c4ccc(Cl)cc4)ccc3C2=O)C(=O)N1 (stereo not shown)	7.44

====

system: Kasumi-1; experiment: IncuCyte Kinetic Caspase-3/7 Apoptosis Assay; type: cell-based; conditions: Homo sapiens, 72 hr, read-out: Compound 1-induced Apoptosis EC50
pEC50: −log10 of the molar value.

Compound	pEC50
O=C1CCC(N2Cc3cc(CNC(=O)C(F)(F)c4ccc(Cl)cc4)ccc3C2=O)C(=O)N1 (stereo not shown)	6.60

====

tested on: AML-193; test: IncuCyte live cell imaging of cell viability, Red-labeled cell line; format: cell-based; details: Homo sapiens; Red-labeled AML-193; 72 hr; read-out: Inhibition of Cell Viability EC50

Compound	Units Label	EC50
O=C1CCC(N2Cc3cc(CNC(=O)C(F)(F)c4ccc(Cl)cc4)ccc3C2=O)C(=O)N1 (stereo not shown) [Compound 1]	nM	3

====

tested on: MV4-11; assay: IncuCyte live cell imaging of cell viability, Red-labeled cell line; format: cell-based; settings: Homo sapiens; Red-labeled MV4-11; 72 hr; read-out: Inhibition of Cell Viability EC50
Endpoint Label: EC50 (nM)

Compound	Endpoint Label	Obs Value
O=C1CCC(N2Cc3cc(CNC(=O)C(F)(F)c4ccc(Cl)cc4)ccc3C2=O)C(=O)N1 (stereo not shown)	EC50	27
